# Test system: MDM2 gene
# assayNotes: RT-qPCR MDM2 gene expression in BEAS-2B
# Format: cell-based, Human
# conditionDetails: Homo sapiens, 24 h, reference gene RPL41, vs untreated control, read-out: Relative level of expression, MDM2 gene
propertyName: fold induction at 100 µM
The answer should be written as a number, with no unit following it.

Consider the worked cases shown below.
compound="Fc1ccc2c(c1)Sc1cc3ccccc3nc1N2Cc1cn(Cc2ccccc2)nn1 [MJ6]" experimentalvalue=5.1
compound="Fc1ccc2c(c1)Sc1cc3ccccc3nc1N2Cc1cn(Cc2ccc(Cl)cc2)nn1 [MJ8]" experimentalvalue=8.1
compound="Fc1ccc(Cn2cc(CN3c4ccccc4Sc4cc5ccccc5nc43)nn2)cc1 [MJ2]" experimentalvalue=6.3
compound="CSc1ccc2c(c1)Sc1cc3ccccc3nc1N2Cc1cn(CSc2ccccc2)nn1 [MJ20]" experimentalvalue=7.7
compound="N#Cc1ccc(Cn2cc(CN3c4ccc(Cl)cc4Sc4cc5ccccc5nc43)nn2)cc1 [MJ14]" experimentalvalue=3.7

Switching to the query record.
-- ask Any idea what its fold induction at 100 µM is? The compound is CSc1ccc2c(c1)Sc1cc3ccccc3nc1N2Cc1cn(Cc2ccc(Cl)cc2)nn1 [MJ18]
-- reply 7.1

----------
# Tested on: BCL2 gene
# assayNotes: RT-qPCR BCL2 gene expression in BEAS-2B
# Assay type: cell-based, Human
# conditionDetails: Homo sapiens, 24 h, reference gene RPL41, vs untreated control, read-out: Relative level of expression, BCL2 gene
Outcome label depends on fold induction at 100 µM relative to 10: at/above gives 1, below gives -1.

The examples below pair each entry with its known result.
smilesinput=N#Cc1ccc(Cn2cc(CN3c4ccc(Cl)cc4Sc4cc5ccccc5nc43)nn2)cc1 testedsystem="BCL2 gene" classassignment=1
smilesinput=c1ccc(SCn2cc(CN3c4ccccc4Sc4cc5ccccc5nc43)nn2)cc1 testedsystem="BCL2 gene" classassignment=-1

-- ask // inclusive: fold induction at 100 µM at least 10? input: Clc1ccc2c(c1)Sc1cc3ccccc3nc1N2Cc1cn(CSc2ccccc2)nn1
-- reply 1

-- ask // inclusive: fold induction at 100 µM at least 10? input: CSc1ccc2c(c1)Sc1cc3ccccc3nc1N2Cc1cn(CSc2ccccc2)nn1
-- reply 1

-- ask // inclusive: fold induction at 100 µM at least 10? input: Fc1ccc2c(c1)Sc1cc3ccccc3nc1N2Cc1cn(CSc2ccccc2)nn1
-- reply 1

-- ask // inclusive: fold induction at 100 µM at least 10? input: Clc1ccc(Cn2cc(CN3c4ccc(Cl)cc4Sc4cc5ccccc5nc43)nn2)cc1
-- reply 1

-- ask // inclusive: fold induction at 100 µM at least 10? input: Clc1ccc(Cn2cc(CN3c4ccccc4Sc4cc5ccccc5nc43)nn2)cc1
-- reply -1

-- ask // inclusive: fold induction at 100 µM at least 10? input: CSc1ccc2c(c1)Sc1cc3ccccc3nc1N2Cc1cn(Cc2ccc(Cl)cc2)nn1
-- reply 1

-- ask // inclusive: fold induction at 100 µM at least 10? input: CSc1ccc2c(c1)Sc1cc3ccccc3nc1N2Cc1cn(Cc2ccc(F)cc2)nn1
-- reply 1

-- ask // inclusive: fold induction at 100 µM at least 10? input: CSc1ccc2c(c1)Sc1cc3ccccc3nc1N2Cc1cn(Cc2ccccc2)nn1
-- reply 1

-- ask // inclusive: fold induction at 100 µM at least 10? input: N#Cc1ccc(Cn2cc(CN3c4ccccc4Sc4cc5ccccc5nc43)nn2)cc1
-- reply -1
